- Test Method Notes: Drug degradation in human serum assessed as drug recovery incubated for 15 mins in presence of argatroban by RP-HPLC analysis
- Format: ADME, cell-free
- Setup Conditions: with argatroban, read-out: Drug recovery
Non-standard residues stand in square brackets, D forms with d. Residues, ends and D or L forms follow the SMILES beside them. *: point of attachment. NMeW = CN[C@@H](Cc1c[nH]c2ccccc12)C(=O)O; Acetyl(2-thienyl) = O=C(Cc1cccs1)*; αMeF = C[C@](N)(Cc1ccccc1)C(=O)O

Molecule	remaining at 0.25 h [%]
CN(C(=O)Cc1cccs1)[C@@H](Cc1c[nH]c2ccccc12)C(=O)N[C@@](C)(Cc1ccccc1)C(=O)N[C@@H](CCCNC(=N)N)C(=O)N1CCC[C@H]1C(=O)N[C@@H](CCCNC(=N)N)C(N)=O ({Acetyl(2-thienyl)}-[NMeW][αMeF]RPR-NH2)	97

* * *

- Test System: UniProt Q9HB89
- Sequence (whole entry): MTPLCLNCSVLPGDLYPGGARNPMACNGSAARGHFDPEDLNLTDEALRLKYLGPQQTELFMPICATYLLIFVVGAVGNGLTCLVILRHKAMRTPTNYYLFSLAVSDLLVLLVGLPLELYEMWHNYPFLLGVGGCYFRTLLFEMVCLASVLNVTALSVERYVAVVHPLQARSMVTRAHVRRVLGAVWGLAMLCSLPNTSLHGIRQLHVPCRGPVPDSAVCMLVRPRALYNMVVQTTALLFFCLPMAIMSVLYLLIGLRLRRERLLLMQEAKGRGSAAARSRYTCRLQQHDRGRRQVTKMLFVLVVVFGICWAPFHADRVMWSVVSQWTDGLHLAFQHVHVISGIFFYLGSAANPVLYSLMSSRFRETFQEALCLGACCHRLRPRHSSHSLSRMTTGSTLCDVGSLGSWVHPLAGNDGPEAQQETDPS
- Test Method Notes: Antagonist activity at human NMUR1 stably expressed in CHO cells by Fluo-4 AM dye based calcium mobilization assay
- Assay type: functional, cell-based
- Setup Conditions: filed as antagonist, dose 30-300 nM
The source made the active and inactive calls. The calls are words filed in the database; no cut-off is given here. Non-standard residues stand in square brackets, D forms with d. Residues, ends and D or L forms follow the SMILES beside them. *: point of attachment. NMeW = CN[C@@H](Cc1c[nH]c2ccccc12)C(=O)O; Acetyl(2-thienyl) = O=C(Cc1cccs1)*
Experimental Endpoint: Activity

Compound	Test System	Experimental Endpoint	Measurement
CN(C(=O)Cc1cccs1)[C@@H](Cc1c[nH]c2ccccc12)C(=O)N[C@@H](Cc1ccccc1)C(=O)N[C@@H](CCCNC(=N)N)C(=O)N1CCC[C@H]1C(=O)N[C@@H](CCCNC(=N)N)C(N)=O ({Acetyl(2-thienyl)}-[NMeW]FRPR-NH2)	UniProt Q9HB89	Activity	Active
CN(C(=O)Cc1cccs1)[C@@H](Cc1c[nH]c2ccccc12)C(=O)N[C@@H](Cc1ccccc1)C(=O)N[C@@H](CCCNC(=N)N)C(=O)N1CCC[C@H]1C(=O)N[C@@H](CCCNC(=N)N)C(=O)N[C@@H](CC(N)=O)C(=O)O ({Acetyl(2-thienyl)}-[NMeW]FRPRN-OH)	UniProt Q9HB89	Activity	Active
CC(C)C[C@H](NC(=O)[C@H](Cc1c[nH]c2ccccc12)N(C)C(=O)Cc1cccs1)C(=O)N[C@@H](CCCNC(=N)N)C(=O)N1CCC[C@H]1C(=O)N[C@@H](CCCNC(=N)N)C(=O)N[C@@H](CC(N)=O)C(N)=O ({Acetyl(2-thienyl)}-[NMeW]LRPRN-NH2)	UniProt Q9HB89	Activity	Active
